tested on: 769-P; assay: minimum viability across doses, drug + dasatinib, relative to DMSO (fraction); higher = less growth inhibition; settings: treatment: drug + dasatinib (fixed dose, not stated); 5 days
The following compounds are shown together with reported minimum viability across doses values.
Respond using a number only.

Compound: CC1(C)CCC(CN2CCN(c3ccc(C(=O)NS(=O)(=O)c4ccc(NCC5CCOCC5)c([N+](=O)[O-])c4)c(Oc4cnc5[nH]ccc5c4)c3)CC2)=C(c2ccc(Cl)cc2)C1 [ABT-199 (GDC-0199 )] + Cc1nc(Nc2ncc(C(=O)Nc3c(C)cccc3Cl)s2)cc(N2CCN(CCO)CC2)n1 [dasatinib]
Subject of test: 769-P
minimum viability across doses: 0.692
--
Compound: Cn1cc(-c2ccc3nnc(C(F)(F)c4ccc5ncccc5c4)n3n2)cn1 + Cc1nc(Nc2ncc(C(=O)Nc3c(C)cccc3Cl)s2)cc(N2CCN(CCO)CC2)n1 [dasatinib]
Subject of test: 769-P
minimum viability across doses: 0.469
--
Compound: CN(c1ncccc1CNc1nc(Nc2ccc3c(c2)CC(=O)N3)ncc1C(F)(F)F)S(C)(=O)=O.O=S(=O)(O)c1ccccc1 + Cc1nc(Nc2ncc(C(=O)Nc3c(C)cccc3Cl)s2)cc(N2CCN(CCO)CC2)n1 [dasatinib]
Subject of test: 769-P
minimum viability across doses: 0.0401
--
Compound: O=C(Nc1cc(C(F)(F)F)cc(C(F)(F)F)c1)c1cc(Cl)ccc1O [IMD 0354] + Cc1nc(Nc2ncc(C(=O)Nc3c(C)cccc3Cl)s2)cc(N2CCN(CCO)CC2)n1 [dasatinib]
Subject of test: 769-P
minimum viability across doses: 0.00617
--
Compound: Cc1cc(Nc2nc(N[C@@H](C)c3ccc(F)cc3)c(C#N)cc2F)n[nH]1 [AZ 960] + Cc1nc(Nc2ncc(C(=O)Nc3c(C)cccc3Cl)s2)cc(N2CCN(CCO)CC2)n1 [dasatinib]
Subject of test: 769-P
minimum viability across doses: 0.0281
--
Compound: C[C@@H](N)[C@H]1CC[C@H](C(=O)Nc2ccncc2)CC1.Cl.Cl + Cc1nc(Nc2ncc(C(=O)Nc3c(C)cccc3Cl)s2)cc(N2CCN(CCO)CC2)n1 [dasatinib]
Subject of test: 769-P
minimum viability across doses: 0.588

Dear colleague, I am looking for the recorded minimum viability across doses of the following compound: C#Cc1cccc(Nc2ncnc3cc(OCCOC)c(OCCO)cc23)c1 + Cc1nc(Nc2ncc(C(=O)Nc3c(C)cccc3Cl)s2)cc(N2CCN(CCO)CC2)n1 [dasatinib]
0.301

Item: c1cncc(CN2CCC(n3ncc4c(N5CCOCC5)nc(-c5ccc6[nH]ccc6c5)nc43)CC2)c1 [WAY-600] + Cc1nc(Nc2ncc(C(=O)Nc3c(C)cccc3Cl)s2)cc(N2CCN(CCO)CC2)n1 [dasatinib]
0.0156

Item: Cn1c(=O)n(-c2ccc(C(C)(C)C#N)cc2)c2c3cc(-c4cnc5ccccc5c4)ccc3ncc21 [BEZ235 (NVP-BEZ235)] + Cc1nc(Nc2ncc(C(=O)Nc3c(C)cccc3Cl)s2)cc(N2CCN(CCO)CC2)n1 [dasatinib]
0.0926

* * *

test system: CAKI-1; experiment: GI50 of drug in presence of dasatinib; higher = less potent; details: treatment: drug + dasatinib (fixed dose, not stated); 5 days
Reported endpoint: GI50 of drug

Compound: CC(C)c1cnn2c(NCc3ccccc3)cc(NCCCCCCN)nc12.Cl [BS-181 HCl] + Cc1nc(Nc2ncc(C(=O)Nc3c(C)cccc3Cl)s2)cc(N2CCN(CCO)CC2)n1
Test result: > 10000 nM
//
Compound: CCS(=O)(=O)Nc1ccc2c(c1)/C(=C(/Nc1ccc(CN3CCCCC3)cc1)c1ccccc1)C(=O)N2 [Hesperadin] + Cc1nc(Nc2ncc(C(=O)Nc3c(C)cccc3Cl)s2)cc(N2CCN(CCO)CC2)n1
Test result: 45.5 nM
//
Compound: CN1CCN(CCOc2cc(OC3CCOCC3)c3c(Nc4c(Cl)ccc5c4OCO5)ncnc3c2)CC1 [Saracatinib (AZD0530)] + Cc1nc(Nc2ncc(C(=O)Nc3c(C)cccc3Cl)s2)cc(N2CCN(CCO)CC2)n1
Test result: 878 nM

Proceed to the following item.
Dear colleague, I am looking for the recorded GI50 of drug of the following compound: Cc1ccc(NC(=O)c2ccc(CN3CCN(C)CC3)cc2)cc1Nc1nc(-c2cccnc2)cs1 [Masitinib (AB1010)] + Cc1nc(Nc2ncc(C(=O)Nc3c(C)cccc3Cl)s2)cc(N2CCN(CCO)CC2)n1
6750 nM
